Recorded z-score, one value per entry.
assay: DUSP6 inhibitors restoring Erk phosphorylation by chemical complementation, primary imaging in DUSP6-transfected HeLa (AID 609); conditions: HeLa MKP-3 transfected, phospho-Erk imaging KS statistic; measured here: nuclear c-Myc green intensity z-score; at 10 µM; cells stimulated with TPA for 15 min
Lab note: jot down the number only; don't add units.

Guide cases for z-score, answers given:
COc1ccc(CN(C#N)c2nc(SC)nc(N(C)C)n2)cc1 = 1.03
CCOC(=O)NC(Nc1sc2c(c1C(N)=O)CCCC2)(C(=O)OCC)C(F)(F)F (stereo not drawn) = -0.663
CCCC(=O)N1CCc2[nH]c3ccccc3c2C1 = 0.615
Cn1c(=O)c2c(nc(NCCCO)n2Cc2cccc(C(F)(F)F)c2)n(C)c1=O = -0.0388
CCCc1cc(Nc2c(C)n(C)n(-c3ccccc3)c2=O)n2c(nc3ccccc32)c1C#N = 0.689
Cc1cccc(-c2nc(C#N)c(NC3CCCCC3)o2)c1 = -0.201
O=c1c(-c2ccc(Cl)cc2)[n+]([O-])c2ccccc2n1O = 0.796
NC(=O)C(c1ccccc1)C1CCCC1 (stereo not drawn) = -0.32

-- ask Data request, read-out z-score, for O=C(O)C(O)c1ccco1 (stereo not drawn)
-- reply 0.00341

-- ask Continue with COC(=O)c1ccccc1NC(=O)C1COc2ccccc2O1 (stereo not drawn)
-- reply -0.164

-- ask Continue with COc1ccc(C2C(C#N)=C(N)Oc3cc(C)n(CCN4CCOCC4)c(=O)c32)cc1OC (stereo not drawn)
-- reply 0.613
